system: Platelet-derived growth factor receptor alpha (Homo sapiens), P16234 [V561D]; conditions: at 0.1 µM
Sequence (P16234 whole entry V561D): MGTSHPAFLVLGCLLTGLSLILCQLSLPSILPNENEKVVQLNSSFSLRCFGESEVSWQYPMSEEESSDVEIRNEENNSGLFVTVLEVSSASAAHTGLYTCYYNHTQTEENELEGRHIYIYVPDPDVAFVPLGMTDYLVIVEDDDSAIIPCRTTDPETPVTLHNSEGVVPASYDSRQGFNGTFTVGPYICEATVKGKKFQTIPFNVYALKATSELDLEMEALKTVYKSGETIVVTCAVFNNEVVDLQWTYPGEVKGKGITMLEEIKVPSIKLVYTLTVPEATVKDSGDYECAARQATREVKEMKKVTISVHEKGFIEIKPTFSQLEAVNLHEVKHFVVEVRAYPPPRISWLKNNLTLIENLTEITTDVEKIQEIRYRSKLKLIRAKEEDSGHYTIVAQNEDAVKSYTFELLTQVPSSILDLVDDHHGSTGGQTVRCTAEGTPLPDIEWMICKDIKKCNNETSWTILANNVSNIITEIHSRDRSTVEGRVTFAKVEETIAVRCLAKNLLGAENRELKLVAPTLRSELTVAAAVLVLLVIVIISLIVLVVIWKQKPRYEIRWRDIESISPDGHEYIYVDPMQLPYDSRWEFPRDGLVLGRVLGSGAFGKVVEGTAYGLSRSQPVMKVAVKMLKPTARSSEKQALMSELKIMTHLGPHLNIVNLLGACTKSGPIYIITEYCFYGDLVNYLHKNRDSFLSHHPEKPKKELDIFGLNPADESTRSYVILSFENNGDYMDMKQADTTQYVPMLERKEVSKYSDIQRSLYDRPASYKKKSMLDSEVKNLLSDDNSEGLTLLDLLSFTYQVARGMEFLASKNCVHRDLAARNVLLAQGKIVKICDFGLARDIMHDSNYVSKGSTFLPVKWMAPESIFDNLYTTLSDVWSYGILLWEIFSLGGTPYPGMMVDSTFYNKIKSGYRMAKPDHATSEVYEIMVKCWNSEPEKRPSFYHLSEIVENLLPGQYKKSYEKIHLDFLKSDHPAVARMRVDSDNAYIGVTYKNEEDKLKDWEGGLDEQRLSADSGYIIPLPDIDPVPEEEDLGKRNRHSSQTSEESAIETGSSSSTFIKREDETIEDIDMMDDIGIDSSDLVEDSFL
Collected inhibition values appear next to each entry.
Express the result in % but write the number alone.

Record excerpt, results attached:
MOLECULE	inhibition / %
NCc1ccc(-n2c(-c3nonc3N)nc3cnccc32)cc1	2.5
CCS(=O)(=O)c1ccc(OC)c(Nc2ncc(-c3cccc(-c4ccccc4F)c3)o2)c1	18.5

Then there is this molecule:
The reported Platelet-derived growth factor receptor alpha (Homo sapiens), P16234 [V561D] inhibition of COc1ccc2cc(-c3c(-c4ccncc4)nc(-c4ccc([S+](C)[O-])cc4C)n3C)ccc2c1 (stereo not drawn) is -2.47
